The origin of these recorded values is a melting point compilation (Tetko et al.; mined from patent text by program, amines drawn as free bases though some values may be those of a salt).

Recorded metric: melting point

Reference set, count: 3
CN1C(=O)COc2ccc(C3=NNC(=O)CC3)cc21    247 to 248 °C
COC(=O)c1ccc(C(=O)C=C(c2cc(Cl)cc(Cl)c2)C(F)(F)F)cc1    65.5 to 67.5 °C
CCOC(=O)C(Cc1cccc2cccnc12)(NC(=O)CC)C(=O)OCC    80 to 100 °C

Please report the recorded melting point for `CCC(CC)(CC(=O)Nc1ccc2ccc(OCc3ccc4ccccc4n3)cc2c1)C(=O)O` . 190 to 191 °C

Another compound: `COC(=O)Nc1cc(C(C)(C)C)no1` 86.5 to 87 °C

Another compound: `CCOCc1ccc(CN(O)C(N)=O)o1` 80.5 °C

Another compound: `Clc1ccc2[nH]cc([C@H]3CC[C@@H](N4CCN(c5cccc6[nH]ccc56)CC4)CC3)c2c1` 283 to 285 °C

---

Recorded metric: melting point

Reference set, count: 2
COc1ccc(-n2nc(C(F)F)cc2-c2ccc(S(C)(=O)=O)cc2)cc1Cl    169 to 171 °C
c1c2c(cc3c1CCC3)CCC2    35 to 36.2 °C

Please report the recorded melting point for `O=C(/C=C/c1cccc(S(=O)(=O)N2CCN(Cc3ccc4c(c3)OCO4)CC2)c1)NO` . 172 °C

Another compound: COC(=O)c1ccc(C(CCN(C)C)c2ncc[nH]2)cc1 (stereo not drawn) 102 to 104 °C

---

Quick reference: melting point of the listed items.

C=CCOCC(C)OC(=O)COc1ccc(Cl)c2cccnc12 (configuration not stated)    59 °C

Please report the recorded melting point for `N#Cc1c(Cl)ccnc1Cl` . 107 to 109 °C

Another compound: CN1CCC(C2c3ccccc3C=Cc3ccc(Br)cc32)CC1 (single isomer, unassigned; (+)) 178 to 180 °C

Another compound: `CCCCc1ccc(-c2cc(Cl)c(C#N)cn2)cc1` 107 °C

Another compound: `Nc1c(CCO)cccc1C(=O)c1ccc(Br)cc1` 126 to 127 °C

Another compound: CC(=O)N1CCc2cc(CC(C)Br)cc(C#N)c21 (configuration not stated) 115 to 117 °C

Another compound: `Cc1ccc(S(=O)(=O)N(c2ccc(C#N)cc2C#N)C(C)C)cc1` 157 to 158 °C

Another compound: `CCCc1nn(-c2ccc(C(F)(F)F)cn2)cc1CCCOc1cc(CCC(=O)O)cc(OC)c1` 98 to 99 °C

---

Quick reference: melting point of the listed items.

CN(C1CCN(Cc2cnc3ccccc3c2)CC1)S(=O)(=O)c1ccc(Nc2nccc(Nc3ccc(F)cc3)n2)cc1    125 to 127 °C
Clc1ccc2oc(CBr)cc2c1    70 °C
COc1cc(-c2cc(Br)cs2)cc2oc(=O)c(C)c(C)c12    131 to 134 °C
CS(=O)(=O)c1ccc(-c2ccc(Cl)n2-c2ccc(F)cc2)cc1    180 to 182 °C
CNC(=O)c1cnn2c(C(=O)N3CCN(C(=O)OC(C)(C)C)CC3)c(Cc3cccc(F)c3C)c(-c3ccccc3)c2c1    153 to 154 °C
COc1ccc(N2CCOCC2)c2sc(-c3nc(-c4ccc5c(c4)OCCO5)c[nH]3)nc12    235 to 237 °C
CCCCCCCCCCCC(=O)c1ccc(/C=C/C(=O)O)o1    122 to 127 °C
CC1Oc2cc(N)c([N+](=O)[O-])cc2O1 (configuration not stated)    139 °C

Please report the recorded melting point for `COc1cc(N)c(Cl)cc1C(=O)CCC1CCNCC1` . 138 to 140 °C

Another compound: COc1ccccc1OC(CCN)c1ccccc1 (configuration not stated) 118 to 121 °C

Another compound: `CCCCCCCCCCCCCCCCC[C@@H](O)C[C@H]1OC(=O)[C@@H]1CCC` 84 to 85 °C

Another compound: `CON(C)C(=O)c1cc(C(F)(F)F)nc2c(C(F)(F)F)cccc12` 93 to 95 °C

Another compound: `FC(F)(F)c1ccc(-c2cc(Nc3ccc4ccc(Cl)nc4c3)ncn2)cc1` 233 °C

Another compound: `CS(=O)(=O)OCCn1c(=NC(=O)C(F)(F)F)sc2cc(OC(F)(F)F)ccc21` 145 °C

Another compound: `COc1cccc(C=C(NC=O)c2ccncc2)c1OC` 161 to 162 °C

Another compound: O=C1NCc2cc(C(c3ccccc3)n3ccnc3)ccc2N1 (configuration not stated) 222 °C

Another compound: `CS(=O)(=O)c1ccccc1-c1ccn[nH]c1=O` 123 to 125 °C

Another compound: `O=c1[nH]c2cc(F)c(Br)c([N+](=O)[O-])c2[nH]c1=O` 323 to 327 °C
